molecular target: DRB1*0401 (DR4w4) (Homo sapiens, UniProt P01903+P01911, A100K/A169T/F76Y/I96L/K127E/L162R/M171V/N62H/P40V/Q125Y/R42H/S133A/S149N/S66Y/V115G/V209L/W38E); assay: HLA class II peptide binding assay, purified HLA; details: Table XIX, DR supermotif peptides; unit not given

{"SAMPLE SMILES": "CC[C@H](C)[C@H](NC(=O)[C@H](CC(C)C)NC(=O)[C@H](C)NC(=O)[C@H](CC(C)C)NC(=O)CNC(=O)[C@H](CO)NC(=O)CNC(=O)[C@H](CC(C)C)NC(=O)[C@H](CCC(=O)O)NC(=O)[C@H](CCCNC(=N)N)NC(=O)[C@@H](N)CC(C)C)C(=O)N[C@@H](Cc1c[nH]cn1)C(=O)N[C@@H](Cc1c[nH]cn1)C(=O)N[C@@H](CC(N)=O)C(=O)N[C@H](C(=O)O)[C@@H](C)O", "DR4w4 binding data": "−0.0025"}

* * *

Catalogue of DR6w19 binding data values
target: DRB1*1302 (DR6w19) (Homo sapiens, UniProt P01903+P01911, A100E/A169T/K41T/L162R/M171V/P40S/Q125H/Q178H/Q39Y/Q99D/R42S/S66N/T262R/V115G/W38E/Y61H); assay: HLA class II peptide binding assay, purified HLA; conditions: Table XIX, DR supermotif peptides; unit not given
Sequence (P01903 26-254 limits assumed, other chains not shown): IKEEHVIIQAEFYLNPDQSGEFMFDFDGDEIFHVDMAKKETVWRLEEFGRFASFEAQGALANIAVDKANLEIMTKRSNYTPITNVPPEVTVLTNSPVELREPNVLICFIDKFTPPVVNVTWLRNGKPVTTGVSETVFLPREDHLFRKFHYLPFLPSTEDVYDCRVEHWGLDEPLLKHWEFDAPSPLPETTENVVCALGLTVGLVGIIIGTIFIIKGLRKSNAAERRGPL

{"SAMPLE SMILES": "CC[C@H](C)[C@H](NC(=O)[C@H](CCSC)NC(=O)[C@H](Cc1ccc(O)cc1)NC(=O)[C@@H](NC(=O)[C@H](CC(=O)O)NC(=O)[C@@H](NC(=O)[C@@H](NC(=O)[C@H](CS)NC(=O)[C@@H](NC(=O)[C@@H]1CCCN1C(=O)[C@@H]1CCCN1C(=O)[C@@H](N)CCC(N)=O)[C@@H](C)CC)[C@@H](C)O)[C@@H](C)CC)C(C)C)C(=O)N[C@@H](CCSC)C(=O)N[C@H](C(=O)N[C@@H](CCCCN)C(=O)O)C(C)C", "DR6w19 binding data": 0.0013}
{"SAMPLE SMILES": "CC(C)C[C@H](NC(=O)[C@H](CO)NC(=O)[C@H](C)NC(=O)[C@H](CC(N)=O)NC(=O)[C@@H](NC(=O)[C@@H]1CCCN1C(=O)[C@H](CC(C)C)NC(=O)[C@H](Cc1ccc(O)cc1)NC(=O)[C@@H](NC(=O)[C@H](CC(C)C)NC(=O)[C@H](CCC(=O)O)NC(=O)[C@H](CC(C)C)NC(=O)[C@@H](N)CC(N)=O)[C@@H](C)O)[C@@H](C)O)C(=O)N[C@@H](CO)C(=O)N[C@@H](Cc1ccccc1)C(=O)O", "DR6w19 binding data": 0.0017}
{"SAMPLE SMILES": "CC(C)C[C@H](NC(=O)[C@H](CO)NC(=O)[C@H](C)NC(=O)[C@H](CC(N)=O)NC(=O)[C@@H](NC(=O)[C@@H]1CCCN1C(=O)[C@H](CC(C)C)NC(=O)[C@H](Cc1ccc(O)cc1)NC(=O)[C@@H](NC(=O)[C@@H](N)CC(C)C)[C@@H](C)O)[C@@H](C)O)C(=O)N[C@@H](CO)C(=O)N[C@@H](Cc1ccccc1)C(=O)N[C@@H](CC(C)C)C(=O)N[C@@H](CCC(N)=O)C(=O)N[C@@H](CC(=O)O)C(=O)O", "DR6w19 binding data": 0.0280}
